# protocol.description: Cytotoxicity in human CEM/0 cells assessed as reduction in cell viability incubated for 4 to 5 days
# condition.parameters: CEM/0 cells
Recorded CC50 for the following molecules

molecule	readout.relation	CC50, µM
CCCCCCCCCCCCCCCCOC(=O)Oc1ccc(COP(=O)(OCc2ccc(OC(=O)CC)cc2)OP(=O)(O)OP(=O)(O)OC[C@H]2O[C@@H](n3cc(/C=C/Br)c(=O)[nH]c3=O)C[C@@H]2O)cc1.N.N (stereo partly specified)	=	43
Cc1cn([C@@H]2C[C@H](CO)[C@@H](O)C2)c(=O)[nH]c1=O	>	250
CCCCCCCCCCCCCCCCOC(=O)Oc1ccc(COP(=O)(OCc2ccc(OC(=O)CC)cc2)OP(=O)(O)OP(=O)(O)OC[C@H]2O[C@@H](n3ccc(=O)[nH]c3=O)C[C@H]2N=[N+]=[N-])cc1.N.N (stereo partly specified)	=	44
CCCCCCCCCCCCCCCCOC(=O)Oc1ccc(COP(=O)(OCc2ccc(OC(=O)CC)cc2)OP(=O)(O)OP(=O)(O)OC[C@H]2O[C@@H](n3cc(Cl)c(=O)[nH]c3=O)C[C@H]2N=[N+]=[N-])cc1.N.N (stereo partly specified)	=	45
CCCCCCCCCCCCCCCCOC(=O)Oc1ccc(COP(=O)(OCc2ccc(OC(=O)CC)cc2)OP(=O)(O)OP(=O)(O)OC[C@H]2O[C@@H](n3cc(Cl)c(=O)[nH]c3=O)C[C@@H]2F)cc1.N.N (stereo partly specified)	=	42
CCCCCCCCCCCCCCCCOC(=O)Oc1ccc(COP(=O)(O)OP(=O)(O)OP(=O)(O)OC[C@H]2O[C@@H](n3cc(Cl)c(=O)[nH]c3=O)C[C@@H]2F)cc1	=	54

----------
# protocol.description: Stability in human CEM/0 cell extracts assessed as hydrolysis half life by HPLC analysis
# Assay type: ADME, CCRF-CEM
experimental.endpoint: half-life (h)

compound	experimental.endpoint	quantity.unit	measurement
CCCCCCCCCCCCCCCCOC(=O)Oc1ccc(COP(=O)(OCc2ccc(OC(=O)CC)cc2)OP(=O)(O)OP(=O)(O)OC[C@@H]2O[C@H](n3cc(F)c(N)nc3=O)CS2)cc1.N.N (stereo partly drawn)	half-life	h	1.49
CCCCCCCCCCCCCCCCOC(=O)Oc1ccc(COP(=O)(OCc2ccc(OC(=O)CCCC)cc2)OP(=O)(O)OP(=O)(O)OC[C@@H]2O[C@H](n3cc(F)c(N)nc3=O)CS2)cc1.N.N (stereo partly drawn)	half-life	h	2.78
CCCCCCCCCCCCCCCCOC(=O)Oc1ccc(COP(=O)(OCc2ccc(OC(=O)CC)cc2)OP(=O)(O)OP(=O)(O)OC[C@H]2O[C@@H](n3ccc(=O)[nH]c3=O)C[C@H]2N=[N+]=[N-])cc1.N.N (stereo partly drawn)	half-life	h	1.54
